- SYSTEM UNDER TEST: OATP1B1 (Homo sapiens, UniProt Q9Y6L6)
- Construct: expressed in transfected cells; host or cells: A431 cells
- Sequence (Q9Y6L6 whole entry): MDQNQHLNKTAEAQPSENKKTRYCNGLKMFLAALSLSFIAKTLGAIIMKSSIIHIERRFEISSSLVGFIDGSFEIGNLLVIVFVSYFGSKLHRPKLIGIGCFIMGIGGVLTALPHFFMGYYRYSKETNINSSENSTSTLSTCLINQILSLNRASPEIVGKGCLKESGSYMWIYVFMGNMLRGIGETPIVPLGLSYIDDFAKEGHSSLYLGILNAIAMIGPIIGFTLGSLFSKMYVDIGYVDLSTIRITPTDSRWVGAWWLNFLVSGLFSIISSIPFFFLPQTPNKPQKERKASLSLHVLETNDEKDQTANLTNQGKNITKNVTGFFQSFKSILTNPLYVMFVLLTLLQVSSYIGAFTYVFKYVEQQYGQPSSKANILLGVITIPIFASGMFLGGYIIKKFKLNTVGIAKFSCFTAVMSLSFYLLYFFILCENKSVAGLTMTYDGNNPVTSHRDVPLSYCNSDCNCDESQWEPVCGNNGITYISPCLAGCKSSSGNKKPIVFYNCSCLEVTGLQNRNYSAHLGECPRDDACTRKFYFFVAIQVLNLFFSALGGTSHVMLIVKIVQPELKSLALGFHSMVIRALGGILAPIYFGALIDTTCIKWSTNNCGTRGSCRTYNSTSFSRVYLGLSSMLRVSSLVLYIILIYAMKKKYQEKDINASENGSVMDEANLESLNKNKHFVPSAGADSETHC
- ASSAY PROCEDURE: Pyranine transport inhibition in A431 cells overexpressing OATP1B1
- Format: cell-based
- CONDITION SET: human, pH 5.5
MEASURED QUANTITY: IC50 at 15 min

Item under review: O=C(Cc1ccccc1[N+](=O)[O-])NCC1CC2c3ccccc3C1c1ccccc12 (stereo not shown) . Reported IC50 at 15 min?
> 10 µM

----------
- SYSTEM UNDER TEST: OATP1B3 (Homo sapiens)
- Construct: expressed in transfected cells; host or cells: A431 cells
- Sequence (Q9NPD5 whole entry): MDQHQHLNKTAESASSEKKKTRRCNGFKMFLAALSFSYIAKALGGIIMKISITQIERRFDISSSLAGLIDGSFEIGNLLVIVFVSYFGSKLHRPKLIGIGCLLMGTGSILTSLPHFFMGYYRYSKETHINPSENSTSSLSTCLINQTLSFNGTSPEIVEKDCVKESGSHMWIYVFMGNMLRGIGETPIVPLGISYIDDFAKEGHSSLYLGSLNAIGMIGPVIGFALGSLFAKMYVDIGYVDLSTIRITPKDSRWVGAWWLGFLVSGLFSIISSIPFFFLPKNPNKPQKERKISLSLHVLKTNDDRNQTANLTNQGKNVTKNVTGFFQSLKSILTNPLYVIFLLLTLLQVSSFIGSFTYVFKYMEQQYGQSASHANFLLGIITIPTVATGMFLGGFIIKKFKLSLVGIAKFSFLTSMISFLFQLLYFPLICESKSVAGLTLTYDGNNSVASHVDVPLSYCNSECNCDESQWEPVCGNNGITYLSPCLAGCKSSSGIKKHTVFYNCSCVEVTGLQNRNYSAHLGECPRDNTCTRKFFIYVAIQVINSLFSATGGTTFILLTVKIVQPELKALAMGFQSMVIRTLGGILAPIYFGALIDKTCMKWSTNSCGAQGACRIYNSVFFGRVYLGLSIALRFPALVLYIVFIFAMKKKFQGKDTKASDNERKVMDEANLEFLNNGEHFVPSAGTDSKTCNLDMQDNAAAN
- ASSAY PROCEDURE: Pyranine transport inhibition in A431 cells overexpressing OATP1B3
- Assay type: cell-based
- CONDITION SET: human, pH 5.5, probe pyranine 20 μM, initial three-point screen (1, 10, 100 μM), category by concentration needed for 50% inhibition; pyranine 20 μM, 30 min, pH 5.5
MEASURED QUANTITY: IC50 at 30 min

Can you share its IC50 at 30 min? I mean this compound: COC(=O)c1c(NC(=O)CN2C(=O)NC3(CCc4ccccc4C3)C2=O)sc2c1CCCCC2 (stereo not shown) [H5]
> 10 µM
